experimental target: MycN (Homo sapiens, UniProt P04198)
Construct: endogenous in cells; host or cells: SK-N-BE(2)
Sequence (P04198 whole entry): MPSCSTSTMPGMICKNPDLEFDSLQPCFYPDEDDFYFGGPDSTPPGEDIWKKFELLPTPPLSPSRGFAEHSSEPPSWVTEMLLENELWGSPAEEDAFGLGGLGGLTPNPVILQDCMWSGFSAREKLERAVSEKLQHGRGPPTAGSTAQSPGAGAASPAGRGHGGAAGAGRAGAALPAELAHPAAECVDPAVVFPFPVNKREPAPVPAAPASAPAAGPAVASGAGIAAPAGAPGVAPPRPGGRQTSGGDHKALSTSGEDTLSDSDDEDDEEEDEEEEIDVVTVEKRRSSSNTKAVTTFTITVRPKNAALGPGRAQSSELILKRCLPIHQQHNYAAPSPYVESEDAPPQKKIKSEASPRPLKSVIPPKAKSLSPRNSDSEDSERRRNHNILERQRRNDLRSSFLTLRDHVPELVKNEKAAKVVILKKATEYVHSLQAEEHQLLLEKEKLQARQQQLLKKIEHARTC
assay info: Degradation of MycN protein in SK-N-BE(2) cells, JESS/Western blot of lysates
Assay type: cell-based
assay context: SKNBE2, 24 h, read-out: % Degradation of MycN (SKNBE2) 24 h, 1 μM
Description: For L363 cells (suspension), 1E6 cells were plated into each well of a 6 well plate. For SK-N-BE(2) cells (adherent), 5E5 cells were plated into each well of a 6 well dish. […] Once an appropriate lysate concentration and antibody concentration was determined, samples were screened in the JESS technology (Protein Simple, San Jose, CA—https://www.proteinsimple.com/jess.html). […]
Dmax at 1 µM by entry:

Known Dmax at 1 µM results, listed for orientation:
INSERT INTO measurements (compound, experimental_target, reported) VALUES
  ('COCCNCC12CC(C1)N(c1nccc(Nc3cc(C4CCCC4)[nH]n3)n1)C2 [Compound 67]', 'MycN (Homo sapiens, UniProt P04198)', '50 to 79%'),
  ('c1cc(Nc2cc(C3CCCC3)[nH]n2)nc(N2CC3(CN4CCC4)CC2C3)n1 [Compound 76]', 'MycN (Homo sapiens, UniProt P04198)', '< 20%');

# ---- query compound ----
query: Missing value: Dmax at 1 µM, MycN (Homo sapiens, UniProt P04198), entry NCC1CN(c2nccc(Nc3cc(C4CC4)[nH]n3)n2)CC(F)(F)C1 (stereo not drawn) [Compound 121] . Fill in?
result: 50 to 79%

* * *

Collected Dmax at 3 µM values appear next to each entry.
experimental target: MycN (Homo sapiens)
Construct: endogenous in cells; host or cells: SK-N-BE(2)
assay info: Degradation of MycN protein in SK-N-BE(2) cells, JESS/Western blot of lysates
Type: cell-based
assay context: SKNBE2, 24 h, SKNBE2 cells, 24 h, 3 μM; read-out: % Degradation of MycN (SKNBE2) 24 h, 3 μM

// solved cases for Dmax at 3 µM follow
INSERT INTO results (smiles_code, reported) VALUES
  ('CNC[C@H]1CN(c2nccc(Nc3cc(C4CCCC4)[nH]n3)n2)CCO1', '50 to 79%'),
  ('CC(F)(F)CNCC12CC(C1)N(c1nccc(Nc3cc(C4CCCC4)[nH]n3)n1)C2', '80 to 100%');

Turning now to a further record.
query: Could you tell me which Dmax at 3 µM is on file for CN(C)[C@@H]1CCN(c2nccc(Nc3cc(C4CC4)[nH]n3)n2)C1 ?
result: 50 to 79%

* * *

experimental target: MycN (Homo sapiens, UniProt P04198)
Construct: endogenous in cells; host or cells: SK-N-BE(2)
assay info: Degradation of MycN protein in SK-N-BE(2) cells, JESS/Western blot of lysates
Format: cell-based
assay context: SKNBE2, 24 h, SKNBE2 cells, 24 h, 1 μM; read-out: % Degradation of MycN (SKNBE2) 24 h, 1 μM
Below, each of the molecules is paired with its reported Dmax at 1 µM value.

Example cases with answers are listed next.
INSERT INTO results (molecule, readout_kind, reported) VALUES
  ('CNCC12CCC(C1)N(c1nccc(Nc3cc(C4CCCC4)[nH]n3)n1)C2 (stereo not drawn) [Compound 114]', 'Dmax at 1 µM', '80 to 100%'),
  ('NC[C@@H]1CN(c2nccc(Nc3cc(C4CC4)[nH]n3)n2)C[C@@H]1F [Compound 122-1]', 'Dmax at 1 µM', '20 to 49%'),
  ('c1cc(Nc2cc(C3CCCC3)[nH]n2)nc(N2CC3(CN4CCCC4)CC2C3)n1 [Compound 75]', 'Dmax at 1 µM', '20 to 49%');

query: Could you share which Dmax at 1 µM value was measured for CN1C[C@@H]2CN(c3nccc(Nc4cc(C5CC5)[nH]n4)n3)C[C@@H]2C1 [Compound 15] ?
result: 20 to 49%
